- TESTED_ON: HiBit-BRG1 fusion protein (Homo sapiens, UniProt P51532)
- Construct: expressed in transfected cells
- Sequence (P51532 whole entry, the tested form may be a part): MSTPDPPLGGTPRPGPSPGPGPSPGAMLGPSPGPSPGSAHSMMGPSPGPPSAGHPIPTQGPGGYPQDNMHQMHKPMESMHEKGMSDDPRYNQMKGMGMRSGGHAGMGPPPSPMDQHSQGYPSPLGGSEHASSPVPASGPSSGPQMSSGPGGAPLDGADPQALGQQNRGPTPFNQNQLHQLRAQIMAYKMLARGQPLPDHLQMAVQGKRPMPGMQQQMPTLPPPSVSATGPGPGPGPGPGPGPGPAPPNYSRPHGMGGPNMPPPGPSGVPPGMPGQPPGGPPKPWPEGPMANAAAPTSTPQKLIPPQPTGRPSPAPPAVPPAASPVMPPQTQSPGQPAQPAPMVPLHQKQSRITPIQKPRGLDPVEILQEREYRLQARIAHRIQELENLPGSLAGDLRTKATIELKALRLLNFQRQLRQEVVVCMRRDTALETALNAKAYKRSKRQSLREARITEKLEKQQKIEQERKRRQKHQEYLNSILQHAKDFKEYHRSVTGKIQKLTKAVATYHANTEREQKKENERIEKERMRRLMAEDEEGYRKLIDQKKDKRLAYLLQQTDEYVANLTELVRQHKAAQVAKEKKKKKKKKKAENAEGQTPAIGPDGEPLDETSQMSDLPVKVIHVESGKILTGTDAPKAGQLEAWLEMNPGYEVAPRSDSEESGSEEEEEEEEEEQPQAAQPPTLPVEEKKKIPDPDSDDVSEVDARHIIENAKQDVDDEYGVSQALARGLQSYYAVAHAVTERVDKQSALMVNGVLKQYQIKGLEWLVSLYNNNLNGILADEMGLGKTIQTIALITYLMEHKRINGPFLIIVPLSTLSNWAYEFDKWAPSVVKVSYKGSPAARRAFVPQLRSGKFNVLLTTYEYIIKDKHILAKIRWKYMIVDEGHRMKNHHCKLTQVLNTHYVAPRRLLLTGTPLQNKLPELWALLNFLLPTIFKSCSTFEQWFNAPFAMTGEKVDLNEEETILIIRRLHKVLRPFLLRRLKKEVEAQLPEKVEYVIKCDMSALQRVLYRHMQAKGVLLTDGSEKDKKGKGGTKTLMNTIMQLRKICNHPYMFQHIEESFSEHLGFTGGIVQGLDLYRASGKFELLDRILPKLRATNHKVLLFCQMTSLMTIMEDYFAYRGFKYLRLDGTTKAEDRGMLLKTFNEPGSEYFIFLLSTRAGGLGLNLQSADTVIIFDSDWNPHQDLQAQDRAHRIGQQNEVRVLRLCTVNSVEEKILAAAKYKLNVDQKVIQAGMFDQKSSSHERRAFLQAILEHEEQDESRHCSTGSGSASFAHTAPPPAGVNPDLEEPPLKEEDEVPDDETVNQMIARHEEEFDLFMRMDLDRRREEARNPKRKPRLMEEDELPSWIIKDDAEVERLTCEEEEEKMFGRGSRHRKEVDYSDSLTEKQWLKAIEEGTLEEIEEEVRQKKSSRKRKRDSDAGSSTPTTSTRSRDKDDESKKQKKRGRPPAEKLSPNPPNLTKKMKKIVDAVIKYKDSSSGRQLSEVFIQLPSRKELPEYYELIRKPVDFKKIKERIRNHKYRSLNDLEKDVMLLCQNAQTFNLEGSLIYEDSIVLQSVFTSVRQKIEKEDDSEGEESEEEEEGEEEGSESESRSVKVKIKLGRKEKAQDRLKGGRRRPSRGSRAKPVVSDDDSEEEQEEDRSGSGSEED
- MEASUREMENT_PROTOCOL: HiBiT-BRG1 cell-based degradation assay (Nano-Glo HiBiT Lytic Detection, 24 h)
- APPLIED_CONDITIONS: HeLa, HeLa cells expressing HiBit-BRG1 and LgBit, top dose 30 μM, read-out: BRG1 HiBit Degradation Maximum measured
For each of the molecules below, state its Dmax.

Prompt: Which Dmax value is on record for Cc1ncsc1-c1ccc(CNC(=O)[C@@H]2C[C@@H](O)CN2C(=O)[C@@H](NC(=O)CCCCCCC(=O)NCc2cc(-c3cccc(-c4csc(NC(=O)CNC(=O)c5ccn(S(C)(=O)=O)c5)n4)c3)ccn2)C(C)(C)C)cc1 ?
Completion: < 50%

Prompt: Would you mind telling me what Dmax value was observed for Cc1ncsc1-c1ccc(CNC(=O)[C@@H]2C[C@@H](O)CN2C(=O)[C@@H](NC(=O)CCCC(=O)N2CCN(c3cc(-c4cccc(-c5csc(NC(=O)CNC(=O)c6ccn(S(C)(=O)=O)c6)n5)c4)ccn3)CC2)C(C)(C)C)cc1 ?
Completion: < 50%

Prompt: Look up Dmax for this molecule: CS(=O)(=O)n1ccc(C(=O)NCC(=O)Nc2nc(-c3cccc(-c4cccc(CNC(=O)CCOCCOCCOc5cccc6c5C(=O)N(C5CCC(=O)NC5=O)C6=O)c4)c3)cs2)c1 (centres unmarked)
Completion: < 50%

Prompt: Request the reported Dmax associated with CS(=O)(=O)n1ccc(C(=O)N[C@@H](COCCCC(=O)NCCCCCCNc2ccc3c(c2)C(=O)N(C2CCC(=O)NC2=O)C3=O)C(=O)Nc2nc(-c3ccccc3)cs2)c1 (some centres unmarked)
Completion: < 50%

Prompt: Dmax for CS(=O)(=O)n1ccc(C(=O)NCC(=O)Nc2nc(-c3cccc(-c4ccnc(C5(C(=O)NCCNc6ccc7c(c6)C(=O)N(C6CCC(=O)NC6=O)C7=O)CC5)c4)c3)cs2)c1 (centres unmarked) ?
Completion: > 75%

* * *

- TESTED_ON: HiBit-BRG1 fusion protein (Homo sapiens, UniProt P51532)
- Construct: expressed in transfected cells
- MEASUREMENT_PROTOCOL: HiBiT-BRG1 cell-based degradation assay (Nano-Glo HiBiT Lytic Detection, 24 h)
- APPLIED_CONDITIONS: HeLa, HeLa cells expressing HiBit-BRG1 and LgBit, top dose 30 μM, read-out: BRG1 HiBit Degradation Maximum measured
What Dmax was measured for each of the following?

Prompt: Missing value: Dmax, HiBit-BRG1 fusion protein (Homo sapiens, UniProt P51532), entry Cc1ncsc1-c1ccc(CNC(=O)[C@@H]2C[C@@H](O)CN2C(=O)[C@@H](NC(=O)CN2CC3(CC(C(=O)NCc4cccc(-c5cccc(-c6csc(NC(=O)CNC(=O)c7ccn(S(C)(=O)=O)c7)n6)c5)c4)C3)C2)C(C)(C)C)cc1 . Fill in?
Completion: < 50%

Prompt: What reported Dmax corresponds to Cc1ncsc1-c1ccc(CNC(=O)[C@@H]2C[C@@H](O)CN2C(=O)[C@@H](NC(=O)CCCCCCCCCCCCC(=O)NCc2cccc(-c3cccc(-c4csc(NC(=O)CNC(=O)c5ccn(S(C)(=O)=O)c5)n4)c3)c2)C(C)(C)C)cc1 on HiBit-BRG1 fusion protein (Homo sapiens, UniProt P51532)?
Completion: 50 to 75%

Prompt: What is its Dmax for HiBit-BRG1 fusion protein (Homo sapiens, UniProt P51532)? Entry: CS(=O)(=O)n1ccc(C(=O)N[C@@H](CCOCCCC(=O)NCCOCCOCCOCCNC(=O)COc2ccc3c(c2)C(=O)N(C2CCC(=O)NC2=O)C3=O)C(=O)Nc2nc(-c3ccccc3)cs2)c1 (stereo partly shown)
Completion: < 50%

Prompt: Query Dmax on HiBit-BRG1 fusion protein (Homo sapiens, UniProt P51532) for CS(=O)(=O)n1ccc(C(=O)NCC(=O)Nc2nc(C3CCCN(C(=O)CCOCCOCCOc4ccc5c(c4)C(=O)N(C4CCC(=O)NC4=O)C5=O)C3)cs2)c1 (stereo not shown)
Completion: < 50%

* * *

Consider the following molecules; for each one, report its DC50.
- TESTED_ON: HiBit-BRM fusion protein (Homo sapiens, UniProt P51531)
- Construct: expressed in transfected cells
- Sequence (P51531 whole entry, the tested form may be a part): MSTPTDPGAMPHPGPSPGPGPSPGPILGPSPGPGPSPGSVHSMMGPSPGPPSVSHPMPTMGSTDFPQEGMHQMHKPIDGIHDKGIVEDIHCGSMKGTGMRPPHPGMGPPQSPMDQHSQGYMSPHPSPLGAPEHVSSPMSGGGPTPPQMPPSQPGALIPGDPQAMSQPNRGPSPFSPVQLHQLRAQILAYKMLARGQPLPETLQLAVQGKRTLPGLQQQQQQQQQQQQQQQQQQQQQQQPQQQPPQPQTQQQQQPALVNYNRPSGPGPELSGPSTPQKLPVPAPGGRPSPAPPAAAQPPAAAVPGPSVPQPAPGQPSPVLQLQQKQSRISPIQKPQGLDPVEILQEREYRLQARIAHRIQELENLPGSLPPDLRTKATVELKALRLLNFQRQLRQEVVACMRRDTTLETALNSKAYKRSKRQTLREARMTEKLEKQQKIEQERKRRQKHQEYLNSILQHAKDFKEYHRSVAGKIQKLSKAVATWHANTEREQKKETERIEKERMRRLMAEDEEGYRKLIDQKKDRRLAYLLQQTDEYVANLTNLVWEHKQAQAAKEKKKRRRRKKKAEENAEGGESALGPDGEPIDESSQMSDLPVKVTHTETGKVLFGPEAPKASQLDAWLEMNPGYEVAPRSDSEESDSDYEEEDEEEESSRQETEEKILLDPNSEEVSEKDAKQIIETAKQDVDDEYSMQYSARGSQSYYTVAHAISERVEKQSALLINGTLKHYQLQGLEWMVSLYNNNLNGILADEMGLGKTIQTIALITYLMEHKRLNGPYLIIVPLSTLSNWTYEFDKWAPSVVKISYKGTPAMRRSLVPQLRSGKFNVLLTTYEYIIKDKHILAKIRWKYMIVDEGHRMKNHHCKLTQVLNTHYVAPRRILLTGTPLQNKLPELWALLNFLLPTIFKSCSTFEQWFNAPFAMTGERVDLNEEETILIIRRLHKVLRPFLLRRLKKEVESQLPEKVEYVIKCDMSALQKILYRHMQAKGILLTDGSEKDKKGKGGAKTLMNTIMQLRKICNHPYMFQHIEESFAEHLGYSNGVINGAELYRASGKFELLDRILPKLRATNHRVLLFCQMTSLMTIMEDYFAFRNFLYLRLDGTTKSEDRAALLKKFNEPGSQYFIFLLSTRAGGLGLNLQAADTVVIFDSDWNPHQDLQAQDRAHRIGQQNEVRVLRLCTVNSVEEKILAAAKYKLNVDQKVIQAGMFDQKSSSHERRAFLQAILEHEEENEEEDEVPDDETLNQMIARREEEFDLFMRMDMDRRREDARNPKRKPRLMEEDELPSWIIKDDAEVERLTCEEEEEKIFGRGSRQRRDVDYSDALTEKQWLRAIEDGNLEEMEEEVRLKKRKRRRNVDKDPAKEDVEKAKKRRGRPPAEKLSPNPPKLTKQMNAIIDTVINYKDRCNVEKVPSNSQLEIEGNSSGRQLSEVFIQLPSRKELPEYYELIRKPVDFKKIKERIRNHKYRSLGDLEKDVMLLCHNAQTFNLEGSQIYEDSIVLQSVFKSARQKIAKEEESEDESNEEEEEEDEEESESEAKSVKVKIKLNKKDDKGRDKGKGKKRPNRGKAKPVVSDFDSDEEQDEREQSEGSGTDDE
- MEASUREMENT_PROTOCOL: HiBiT-BRM cell-based degradation assay (Nano-Glo HiBiT Lytic Detection, 24 h)
- APPLIED_CONDITIONS: HeLa cells expressing HiBiT-BRM, read-out: BRM HiBit Degradation IC50

Prompt: Report DC50 for CS(=O)(=O)n1ccc(C(=O)N[C@@H](CCCCNC(=O)CCCCCCCOc2cccc3c2C(=O)N(C2CCC(=O)NC2=O)C3=O)C(=O)Nc2nc(-c3ccccc3)cs2)c1 (stereo partly drawn) [Compound 289] tested on HiBit-BRM fusion protein (Homo sapiens, UniProt P51531).
Completion: > 10 µM

Prompt: # query: DC50 | item CN(CC(=O)NCCCCCNc1cccc2c1C(=O)N(C1CCC(=O)NC1=O)C2=O)c1cc(-c2cccc(-c3csc(NC(=O)CNC(=O)c4ccn(S(C)(=O)=O)c4)n3)c2)ccn1 (stereo not drawn) [Compound 16] | system: HiBit-BRM fusion protein (Homo sapiens, UniProt P51531)
Completion: > 10 µM

Prompt: Could you share what DC50 was measured for Cc1ncsc1-c1ccc(CNC(=O)[C@@H]2C[C@@H](O)CN2C(=O)[C@@H](NC(=O)COCCOCCOCCNC(=O)CCCOC[C@H](NC(=O)c2ccn(S(C)(=O)=O)c2)C(=O)Nc2nc(-c3ccccc3)cs2)C(C)(C)C)cc1 [Compound 225] , tested on HiBit-BRM fusion protein (Homo sapiens, UniProt P51531)?
Completion: > 10 µM

Prompt: Provide value of DC50 for this record tested with HiBit-BRM fusion protein (Homo sapiens, UniProt P51531): CS(=O)(=O)n1ccc(C(=O)N[C@@H](COCCCC(=O)NCCCCCCCCNc2cccc3c2C(=O)N(C2CCC(=O)NC2=O)C3=O)C(=O)Nc2nc(-c3ccccc3)cs2)c1 (stereo partly drawn) [Compound 186]
Completion: > 10 µM

Prompt: Form field: DC50 recorded for Cc1ncsc1-c1ccc(CNC(=O)[C@@H]2C[C@@H](O)CN2C(=O)[C@@H](NC(=O)CCCCCCC(=O)NCc2cc(-c3cccc(-c4csc(NC(=O)CNC(=O)c5ccn(S(C)(=O)=O)c5)n4)c3)ccn2)C(C)(C)C)cc1 [Compound 142] with HiBit-BRM fusion protein (Homo sapiens, UniProt P51531) (enter value)
Completion: > 10 µM

Prompt: Provide value of DC50 for this record tested with HiBit-BRM fusion protein (Homo sapiens, UniProt P51531): Cc1ncsc1-c1ccc(CNC(=O)[C@@H]2C[C@@H](O)CN2C(=O)[C@@H](NC(=O)CCCCCC(=O)N2CCN(c3cc(-c4cccc(-c5csc(NC(=O)CNC(=O)c6ccn(S(C)(=O)=O)c6)n5)c4)ccn3)CC2)C(C)(C)C)cc1 [Compound 86]
Completion: 0.1 to 1 µM

Prompt: Under HiBit-BRM fusion protein (Homo sapiens, UniProt P51531): DC50 value of CS(=O)(=O)n1ccc(C(=O)NCC(=O)Nc2nc(-c3cccc(-c4ccnc(C5(C(=O)N6CC(Oc7ccc8c(c7)C(=O)N(C7CCC(=O)NC7=O)C8=O)C6)CC5)c4)c3)cs2)c1 (stereo not drawn) [Compound 141] ?
Completion: 0.1 to 1 µM

Prompt: Query the reported DC50 for HiBit-BRM fusion protein (Homo sapiens, UniProt P51531); item: CS(=O)(=O)n1ccc(C(=O)N[C@@H](CCOCCCC(=O)N2CCC(CCCCN3CCN(c4ccc5c(c4)C(=O)N(C4CCC(=O)NC4=O)C5=O)CC3)CC2)C(=O)Nc2nc(-c3ccccc3)cs2)c1 (stereo partly drawn) [Compound 257]
Completion: > 10 µM

Prompt: What is its DC50 for HiBit-BRM fusion protein (Homo sapiens, UniProt P51531)? Entry: CS(=O)(=O)n1ccc(C(=O)N[C@@H](CCOCCCC(=O)NCCC2CCN(c3ccc4c(c3)C(=O)N(C3CCC(=O)NC3=O)C4=O)CC2)C(=O)Nc2nc(-c3ccccc3)cs2)c1 (stereo partly drawn) [Compound 277]
Completion: > 10 µM

Prompt: Form field - read-out: DC50; system: HiBit-BRM fusion protein (Homo sapiens, UniProt P51531); submitted item: CN(CC(=O)NCCCCNc1ccc2c(c1)C(=O)N(C1CCC(=O)NC1=O)C2=O)c1cc(-c2cccc(-c3csc(NC(=O)CNC(=O)c4ccn(S(C)(=O)=O)c4)n3)c2)ccn1 (stereo not drawn) [Compound 67]
Completion: > 10 µM

Prompt: Item CS(=O)(=O)n1ccc(C(=O)NCC(=O)Nc2nc(-c3cccc(-c4ccnc(C5(C(=O)NCCNc6ccc7c(c6)C(=O)N(C6CCC(=O)NC6=O)C7=O)CC5)c4)c3)cs2)c1 (stereo not drawn) [Compound 133] with HiBit-BRM fusion protein (Homo sapiens, UniProt P51531) - DC50?
Completion: 0.1 to 1 µM

Prompt: Hi! What's the reported DC50 for Cc1ncsc1-c1ccc(CNC(=O)[C@@H]2C[C@@H](O)CN2C(=O)[C@@H](NC(=O)COCCOCCOCCNC(=O)c2ccc(COC[C@H](NC(=O)c3ccn(S(C)(=O)=O)c3)C(=O)Nc3nc(-c4ccccc4)cs3)cc2)C(C)(C)C)cc1 [Compound 189] on HiBit-BRM fusion protein (Homo sapiens, UniProt P51531)?
Completion: > 10 µM

Prompt: Please tell me: DC50 of COC(=O)N1CCCC(c2csc(NC(=O)[C@H](CCCCNC(=O)CCCCCCCCCCNc3cccc4c3C(=O)N(C3CCC(=O)NC3=O)C4=O)NC(=O)c3ccn(C(C)(C)C)c3)n2)C1 (stereo partly drawn) [Compound 184] , system HiBit-BRM fusion protein (Homo sapiens, UniProt P51531)?
Completion: > 10 µM

Prompt: Field: DC50 (HiBit-BRM fusion protein (Homo sapiens, UniProt P51531)). Entry: CS(=O)(=O)n1ccc(C(=O)N[C@@H](CCOCCCC(=O)N2CC(CCOc3cccc4c3C(=O)N(C3CCC(=O)NC3=O)C4=O)C2)C(=O)Nc2nc(-c3ccccc3)cs2)c1 (stereo partly drawn) [Compound 224]
Completion: > 10 µM

Prompt: Please state recorded DC50 (tested on HiBit-BRM fusion protein (Homo sapiens, UniProt P51531)) of CS(=O)(=O)n1ccc(C(=O)N[C@@H](COCc2ccc(C(=O)N3CCN(CCCCCOc4ccc5c(c4)C(=O)N(C4CCC(=O)NC4=O)C5=O)CC3)cc2)C(=O)Nc2nc(-c3ccccc3)cs2)c1 (stereo partly drawn) [Compound 233]
Completion: > 10 µM

Prompt: Notebook: pull reported DC50 for HiBit-BRM fusion protein (Homo sapiens, UniProt P51531), entry Cc1ncsc1-c1ccc(CNC(=O)[C@@H]2C[C@@H](O)CN2C(=O)[C@@H](NC(=O)CCCCCNC(=O)c2ccc(COC[C@H](NC(=O)c3ccn(S(C)(=O)=O)c3)C(=O)Nc3nc(-c4ccccc4)cs3)cc2)C(C)(C)C)cc1 [Compound 232]
Completion: > 10 µM

Prompt: Please tell me: DC50 of CS(=O)(=O)n1ccc(C(=O)N[C@@H](CCOCCCC(=O)N2CC(CN3CCN(c4ccc5c(c4)C(=O)N(C4CCC(=O)NC4=O)C5=O)CC3)C2)C(=O)Nc2nc(-c3ccccc3)cs2)c1 (stereo partly drawn) [Compound 221] , system HiBit-BRM fusion protein (Homo sapiens, UniProt P51531)?
Completion: > 10 µM

Prompt: Under HiBit-BRM fusion protein (Homo sapiens, UniProt P51531): DC50 value of Cc1ncsc1-c1ccc(CNC(=O)[C@@H]2C[C@@H](O)CN2C(=O)[C@@H](NC(=O)CN2CC3(CC(C(=O)NCc4cccc(-c5cccc(-c6csc(NC(=O)CNC(=O)c7ccn(S(C)(=O)=O)c7)n6)c5)c4)C3)C2)C(C)(C)C)cc1 [Compound 163] ?
Completion: 0.1 to 1 µM

Values from patent US12662479B2
